# Target or system: ErbB2 with Exon 20 YVMA insertion (HER2-YVMA) (Homo sapiens (Human), UniProt P04626, INS775YVMA)
# Sequence (P04626 other isoform, or with tags, fused parts or gaps ins YVMA behind 775): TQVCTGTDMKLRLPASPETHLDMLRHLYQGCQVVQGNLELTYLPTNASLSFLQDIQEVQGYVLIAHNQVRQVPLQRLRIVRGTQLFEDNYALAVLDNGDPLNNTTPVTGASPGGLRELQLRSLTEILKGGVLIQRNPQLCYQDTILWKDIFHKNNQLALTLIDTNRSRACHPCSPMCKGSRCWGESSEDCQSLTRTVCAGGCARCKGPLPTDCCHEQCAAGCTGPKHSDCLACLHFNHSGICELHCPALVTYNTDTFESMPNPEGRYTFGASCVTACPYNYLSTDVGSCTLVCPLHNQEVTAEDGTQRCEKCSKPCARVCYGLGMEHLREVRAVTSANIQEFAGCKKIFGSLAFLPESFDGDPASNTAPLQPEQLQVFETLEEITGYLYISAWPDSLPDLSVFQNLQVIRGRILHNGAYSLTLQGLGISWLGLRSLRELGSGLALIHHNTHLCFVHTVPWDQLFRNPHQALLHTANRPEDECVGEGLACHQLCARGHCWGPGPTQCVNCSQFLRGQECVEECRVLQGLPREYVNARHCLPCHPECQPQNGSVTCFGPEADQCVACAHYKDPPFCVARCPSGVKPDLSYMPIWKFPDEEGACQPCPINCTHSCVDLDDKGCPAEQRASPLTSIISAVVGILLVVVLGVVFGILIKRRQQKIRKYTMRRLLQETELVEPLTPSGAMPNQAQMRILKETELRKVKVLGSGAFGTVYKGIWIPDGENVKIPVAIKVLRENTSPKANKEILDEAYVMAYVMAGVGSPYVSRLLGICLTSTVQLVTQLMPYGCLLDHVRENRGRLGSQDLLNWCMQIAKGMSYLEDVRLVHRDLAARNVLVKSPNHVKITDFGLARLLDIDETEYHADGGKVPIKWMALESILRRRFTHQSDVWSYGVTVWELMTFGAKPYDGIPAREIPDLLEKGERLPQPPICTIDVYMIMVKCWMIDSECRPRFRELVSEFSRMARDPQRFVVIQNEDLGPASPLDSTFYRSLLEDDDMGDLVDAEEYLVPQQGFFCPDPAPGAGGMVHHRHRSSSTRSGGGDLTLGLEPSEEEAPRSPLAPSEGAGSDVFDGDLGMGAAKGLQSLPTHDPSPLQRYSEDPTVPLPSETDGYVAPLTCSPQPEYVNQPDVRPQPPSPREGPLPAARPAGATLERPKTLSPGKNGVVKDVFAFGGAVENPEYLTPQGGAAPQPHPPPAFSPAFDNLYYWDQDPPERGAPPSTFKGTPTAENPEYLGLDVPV
# Procedure text: Cellular Phosphorylation Assay, Assay 4 (constitutive ErbB2 phosphorylation, NIH 3T3 cells)
# Format: cell-based
# Experimental setup: ErbB2 YVMA phosphorylation
Endpoint name: log10 of IC50 (log10 of the value in nM)
In plain terms, each number is the log10 of measured IC50 in nM.

- Compound: "C=CC(=O)N1[C@@H]2CC[C@H]1CC(c1ccc3ncnc(Nc4ccc(Oc5ccc6c(c5)ncn6C)c(C)c4F)c3n1)C2 (mixture of isomers) [Example 143]"
  Assay result: 1.32
- Compound: "C=CC(=O)N1C[C@@H]2C[C@H]1CN2c1ccc2ncnc(Nc3ccc(Oc4ccn5ncnc5c4)c(Cl)c3F)c2n1 [Example 93]"
  Assay result: 0.57
- Compound: "CC#CC(=O)N1CC2CCC(C1)N2c1ccc2ncnc(Nc3ccc(Oc4ccn5ncnc5c4)c(C)c3F)c2n1 [Example 246]"
  Assay result: 1.21
- Compound: "C=CC(=O)N1CCN(c2ccc3ncnc(Nc4ccc(Oc5ccn6ncnc6c5)c(C)c4F)c3n2)C[C@@H]1C [Example 88]"
  Assay result: 1.25
- Compound: "C=CC(=O)N1CC[C@H]2CN(c3ccc4ncnc(Nc5cc(C)c(Oc6ccn7ncnc7c6)cc5F)c4n3)C[C@H]21 [Example 26]"
  Assay result: 1.31
- Compound: "C=CC(=O)N1[C@@H]2CC[C@H]1[C@H](c1ccc3ncnc(Nc4ccc(Oc5ccn6ncnc6c5)c(C)c4)c3n1)C2 (single isomer, unassigned) [Example 233]"
  Assay result: 1.92
- Compound: "C=CC(=O)N1C[C@H]2C[C@@H]1CN2c1ccc2ncnc(Nc3ccc(Oc4ccc5c(c4)ncn5C)c(C)c3F)c2n1 [Example 83]"
  Assay result: 0.98
- Compound: "C=CC(=O)N1CCC(Sc2ccc3ncnc(Nc4ccc(Oc5ccn6ncnc6c5)c(C)c4F)c3n2)CC1 [Example 60]"
  Assay result: 1.69

# batch size: 4; output log10 of IC50 per entry
1. C=CC(=O)N1C2CC1CN(c1ccc3ncnc(Nc4ccc(Oc5ccn6ncnc6c5)c(C)c4F)c3n1)C2 [Example 47]
2. C=CC(=O)N1C[C@@H](c2ccc3ncnc(Nc4cc(C)c(Oc5ccc6c(c5)ncn6C)cc4F)c3n2)CC[C@H]1C [Example 170]
3. C=CS(=O)(=O)N(C)c1ccc2ncnc(Nc3ccc(Oc4ccc5c(c4)ncn5C)c(C)c3)c2n1 [Example 21]
4. C=CC(=O)N1CCN(c2ccc3ncnc(Nc4ccc(Oc5ccn6ncnc6c5)c(C(F)(F)F)c4)c3n2)CC1(C)C [Example 242]

Result string:
[1.14, 1.65, 2.40, 1.98]

# batch size: 2; output log10 of IC50 per entry
1. C=CC(=O)N1CCC(Oc2ccc3ncnc(Nc4cc(C)c(Oc5ccc6cn(C)nc6c5)cc4F)c3n2)CC1 [Example 5]
2. CC#CC(=O)Nc1ccc2ncnc(Nc3ccc(Oc4ccc5c(c4)ncn5C)c(C)c3)c2n1 [Example 19]

Result string:
1: 2.61; 2: 1.94

* * *

# Target or system: EGFR (Homo sapiens (Human))
# Procedure text: ErbB Enzyme Assay (HTRF KinEASE-TK), Assay 3
# Assay type: biochemical
# Experimental setup: EGFR enzyme assay
Exercise: for every item that follows, state its recorded IC50.
Give bare numbers, in µM.

- Molecule: "C=CC(=O)N1CCN(c2ccc3ncnc(Nc4cc(C)c(Oc5ccc6c(c5)ncn6C)cc4F)c3n2)CC12CC2 [Example 340]"
  Unit string: "µM"
  IC50: 0.881

# batch size: 3; output IC50 per entry
1. C=CC(=O)N1C[C@H]2CC[C@@H]1[C@@H](c1ccc3ncnc(Nc4ccc(Oc5ccn6ncnc6c5)c(C)c4F)c3n1)C2 [Example 398]
2. C=CC(=O)N1CCC12CN(c1ccc3ncnc(Nc4cc(Cl)c(Oc5ccn6ncnc6c5)cc4F)c3n1)C2 [Example 343]
3. C=CC(=O)N1CC2CCC(C1)N2c1ccc2ncnc(Nc3cc(Cl)c(Oc4ccn5ncnc5c4)cc3F)c2n1 [Example 441]

Result string:
1. 0.736
2. 0.841
3. 0.682

* * *

Exercise: for every item that follows, state its recorded log10(IC50).
# Target or system: UniProt P00533
# Procedure text: ErbB Enzyme Assay (HTRF KinEASE-TK), Assay 3
# Assay type: biochemical
# Experimental setup: EGFR enzyme
In plain terms, each number is the log10 of measured IC50 in nM.

# annotated cases, reported log10(IC50) shown
- Compound: "C=CC(=O)N1C[C@@H]2C[C@H]1CN2c1ccc2ncnc(Nc3ccc(Oc4ccc5c(c4)ncn5C)c(C)c3F)c2n1"
  Endpoint name: "log10(IC50)"
  Assay result: 2.34
- Compound: "C=CC(=O)N1C[C@@H](c2ccc3ncnc(Nc4ccc(Oc5ccc6c(c5)ncn6C)c(C)c4F)c3n2)C[C@@H]1C"
  Endpoint name: "log10(IC50)"
  Assay result: 3.26
- Compound: "C=CC(=O)N1CCC(Oc2ccc3ncnc(Nc4ccc(Oc5cnn6c(C)cnc6c5)c(Cl)c4F)c3n2)CC1"
  Endpoint name: "log10(IC50)"
  Assay result: 3.16
- Compound: "C=CC(=O)N1[C@@H]2CC[C@H]1[C@H](c1ccc3ncnc(Nc4ccc(Oc5ccn6ncnc6c5)c(C)c4)c3n1)C2 (racemic) [Example 220]"
  Endpoint name: "log10(IC50)"
  Assay result: 2.61

# batch size: 4; output log10(IC50) per entry
1. C=CC(=O)N1C[C@H]2CC[C@@H]1C[C@@H]2c1ccc2ncnc(Nc3cc(C)c(Oc4ccn5ncnc5c4)cc3F)c2n1 (racemic)
2. C=CC(=O)N1CC[C@H]2C[C@H](c3ccc4ncnc(Nc5cc(C)c(Oc6ccn7ncnc7c6)cc5F)c4n3)C[C@H]21 (racemic)
3. C=CC(=O)N1CCC[C@@H](c2ccc3ncnc(Nc4ccc(Oc5ccn6ncnc6c5)c(C)c4F)c3n2)CC1 (single isomer, unassigned) [Example 210]
4. C=CC(=O)N1[C@@H]2CC[C@H]1C(c1ccc3ncnc(Nc4ccc(Oc5ccn6ncnc6c5)c(C)c4)c3n1)C2 (single isomer, unassigned)

Result string:
3.70
3.38
3.21
2.31

* * *

# Target or system: EGFR (Homo sapiens (Human), UniProt P00533)
# Sequence (P00533 25-1210): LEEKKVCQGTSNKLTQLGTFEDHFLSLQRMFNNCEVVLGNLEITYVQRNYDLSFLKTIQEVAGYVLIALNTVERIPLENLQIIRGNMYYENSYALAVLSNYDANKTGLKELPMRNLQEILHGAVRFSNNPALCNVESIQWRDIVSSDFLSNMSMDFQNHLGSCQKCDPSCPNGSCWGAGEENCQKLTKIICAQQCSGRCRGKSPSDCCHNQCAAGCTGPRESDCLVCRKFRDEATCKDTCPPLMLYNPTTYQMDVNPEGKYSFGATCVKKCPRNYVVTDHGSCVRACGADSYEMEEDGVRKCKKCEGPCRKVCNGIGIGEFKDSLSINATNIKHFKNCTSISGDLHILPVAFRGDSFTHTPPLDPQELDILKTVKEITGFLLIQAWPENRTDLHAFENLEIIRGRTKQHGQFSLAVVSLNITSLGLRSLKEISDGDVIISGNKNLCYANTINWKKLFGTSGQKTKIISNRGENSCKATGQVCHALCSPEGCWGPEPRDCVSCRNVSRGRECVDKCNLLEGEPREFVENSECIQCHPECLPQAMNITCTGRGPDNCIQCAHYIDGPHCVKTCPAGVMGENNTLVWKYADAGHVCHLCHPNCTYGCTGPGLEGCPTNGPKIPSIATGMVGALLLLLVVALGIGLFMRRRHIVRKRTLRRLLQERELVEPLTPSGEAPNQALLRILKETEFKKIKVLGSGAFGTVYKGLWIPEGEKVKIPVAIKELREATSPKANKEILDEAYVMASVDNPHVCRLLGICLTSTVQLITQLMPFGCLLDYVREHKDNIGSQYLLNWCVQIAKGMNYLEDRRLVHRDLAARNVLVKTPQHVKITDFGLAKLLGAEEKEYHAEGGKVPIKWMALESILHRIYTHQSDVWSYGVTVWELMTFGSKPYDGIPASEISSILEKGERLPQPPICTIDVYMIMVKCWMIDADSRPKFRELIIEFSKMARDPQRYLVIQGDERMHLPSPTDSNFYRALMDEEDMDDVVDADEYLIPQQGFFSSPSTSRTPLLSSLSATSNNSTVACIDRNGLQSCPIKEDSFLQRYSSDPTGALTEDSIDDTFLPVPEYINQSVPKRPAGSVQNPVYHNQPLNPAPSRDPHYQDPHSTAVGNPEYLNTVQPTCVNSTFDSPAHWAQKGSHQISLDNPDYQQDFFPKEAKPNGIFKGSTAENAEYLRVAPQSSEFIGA
# Procedure text: ErbB Enzyme Assay (HTRF KinEASE-TK), Assay 3
# Type: biochemical
# Experimental setup: EGFR enzyme
Endpoint name: IC50

# batch size: 4; output IC50 per entry
1. C=CC(=O)N1C[C@H](c2ccc3ncnc(Nc4cc(C)c(Oc5ccc6c(c5)ncn6C)cc4F)c3n2)C[C@H]1C
2. C=CC(=O)N1C[C@@H]2C[C@H]1C[C@H]2c1ccc2ncnc(Nc3ccc(Oc4ccc5c(c4)ncn5C)c(C)c3F)c2n1 (racemic)
3. CC#CC(=O)N1CCN(c2ccc3ncnc(Nc4ccc(Oc5ccn6ncnc6c5)c(C)c4F)c3n2)C[C@@H]1COC
4. C=CC(=O)N1CCC(Oc2ccc3ncnc(Nc4cc(Cl)c(Oc5ccc6cn(C)nc6c5)cc4Cl)c3n2)CC1

Result string:
1: ≥ 10 µM; 2: 0.401 µM; 3: ≥ 10 µM; 4: ≥ 10 µM

* * *

Exercise: for every item that follows, state its recorded IC50.
# Target or system: ErbB2 WT (Homo sapiens (Human))
# Sequence (P04626 23-1255): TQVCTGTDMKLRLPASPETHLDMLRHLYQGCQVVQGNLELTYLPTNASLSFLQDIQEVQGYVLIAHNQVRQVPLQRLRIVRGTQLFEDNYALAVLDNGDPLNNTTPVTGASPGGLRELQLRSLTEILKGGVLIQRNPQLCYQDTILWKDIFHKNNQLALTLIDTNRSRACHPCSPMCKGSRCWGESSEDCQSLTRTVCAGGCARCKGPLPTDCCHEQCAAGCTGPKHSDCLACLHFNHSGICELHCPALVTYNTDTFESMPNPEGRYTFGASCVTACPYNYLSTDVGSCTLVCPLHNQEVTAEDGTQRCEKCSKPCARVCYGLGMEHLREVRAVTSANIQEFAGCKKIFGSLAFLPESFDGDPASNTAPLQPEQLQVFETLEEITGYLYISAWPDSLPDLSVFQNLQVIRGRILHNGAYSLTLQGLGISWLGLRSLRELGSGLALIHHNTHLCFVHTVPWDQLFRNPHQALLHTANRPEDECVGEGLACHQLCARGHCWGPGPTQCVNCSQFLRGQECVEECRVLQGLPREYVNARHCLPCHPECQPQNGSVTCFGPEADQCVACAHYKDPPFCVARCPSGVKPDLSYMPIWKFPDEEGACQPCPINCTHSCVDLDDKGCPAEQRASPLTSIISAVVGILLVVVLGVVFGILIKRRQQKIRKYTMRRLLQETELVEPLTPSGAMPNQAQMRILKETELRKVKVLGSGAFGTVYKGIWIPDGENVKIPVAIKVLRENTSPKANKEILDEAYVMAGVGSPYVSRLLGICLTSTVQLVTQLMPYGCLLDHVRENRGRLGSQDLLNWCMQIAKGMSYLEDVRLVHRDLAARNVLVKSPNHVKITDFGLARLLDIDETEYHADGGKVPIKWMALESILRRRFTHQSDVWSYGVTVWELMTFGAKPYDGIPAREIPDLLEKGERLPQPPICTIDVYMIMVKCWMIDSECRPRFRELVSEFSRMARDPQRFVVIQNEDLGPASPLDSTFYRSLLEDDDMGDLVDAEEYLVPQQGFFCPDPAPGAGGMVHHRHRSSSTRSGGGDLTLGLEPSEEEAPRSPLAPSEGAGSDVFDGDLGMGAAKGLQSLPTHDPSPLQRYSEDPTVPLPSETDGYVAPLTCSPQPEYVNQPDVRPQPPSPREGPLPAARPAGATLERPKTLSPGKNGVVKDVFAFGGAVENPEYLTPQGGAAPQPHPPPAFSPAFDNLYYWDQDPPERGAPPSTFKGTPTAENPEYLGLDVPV
# Procedure text: ErbB Enzyme Assay (HTRF KinEASE-TK), Assay 2
# Type: biochemical
# Experimental setup: ErbB2 WT enzyme
One number for each entry, in nM.

# annotated cases, reported IC50 shown
- Molecule: "CC#CC(=O)N1CCC[C@@H](c2ccc3ncnc(Nc4ccc(Oc5ccn6ncnc6c5)c(C)c4F)c3n2)CC1 (single isomer, unassigned) [Example 211]"
  Unit string: "nM"
  IC50: 65.4
- Molecule: "C=CC(=O)N1[C@H]2CC[C@@H]1[C@@H](c1ccc3ncnc(Nc4ccc(Oc5ccn6ncnc6c5)c(C)c4F)c3n1)C2 (single isomer, unassigned) [Example 229]"
  Unit string: "nM"
  IC50: 16.7
- Molecule: "C=CC(=O)N1CCC(Oc2ccc3ncnc(Nc4ccc(Oc5cnn6ccnc6c5)c(C)c4F)c3n2)CC1 [Example 56]"
  Unit string: "nM"
  IC50: 233
- Molecule: "C=CC(=O)N1CC(Sc2ccc3ncnc(Nc4ccc(Oc5ccn6ncnc6c5)c(C)c4F)c3n2)C1 [Example 63]"
  Unit string: "nM"
  IC50: 31.4
- Molecule: "C=CC(=O)N1CCN(c2ccc3ncnc(Nc4cc(C)c(Oc5ccn6ncnc6c5)cc4F)c3n2)C[C@H]1CC [Example 164]"
  Unit string: "nM"
  IC50: 45.8

# IC50 of C=CC(=O)N1CCC(Sc2nc3c(Nc4ccc(Oc5ccc6c(c5)ncn6C)c(C)c4)ncnc3cc2OC)CC1 [Example 159] = 20.4

* * *

# Target or system: EGFR (Homo sapiens (Human))
# Procedure text: ErbB Enzyme Assay (HTRF KinEASE-TK), Assay 3
# Type: biochemical
# Experimental setup: EGFR enzyme assay
pIC50: −log10 of the molar value.
# binarize pIC50: threshold 6 inclusive, high side True, low side False

Observe how each entry below is paired with its result.
- Compound: "C=CC(=O)N1CC[C@@H]2C[C@H]1CN2c1ccc2ncnc(Nc3cc(Cl)c(Oc4cnc5c(c4)ncn5C)cc3F)c2n1"
  Label class: "False"
- Compound: "C=CC(=O)N1[C@@H](C)CN(c2ccc3ncnc(Nc4cc(Cl)c(Oc5ccc6c(c5)ncn6C)cc4F)c3n2)C[C@@H]1C"
  Label class: "False"
- Compound: "C=CC(=O)N1CCN(c2ccc3ncnc(Nc4cc(Cl)c(Oc5ccn6ncnc6c5)cc4F)c3n2)C[C@H]1C(C)(C)C"
  Label class: "False"

Query string: Threshold query (pIC50 >= 6) on C=CC(=O)N1CCN(c2ccc3ncnc(Nc4cc(Cl)c(Oc5ccn6ncnc6c5)cc4F)c3n2)CC1C(F)F (stereo not drawn)
Result string: True

Query string: Threshold query (pIC50 >= 6) on `C=CC(=O)N1CC[C@H]2C[C@H](c3ccc4ncnc(Nc5ccc(Oc6ccn7ncnc7c6)c(C)c5F)c4n3)C[C@H]21`
Result string: True

Query string: Threshold query (pIC50 >= 6) on `C=CC(=O)N1CCN(c2ccc3ncnc(Nc4ccc(Oc5ccn6ncnc6c5)c(C)c4F)c3n2)C[C@H]1COC`
Result string: True

Query string: Threshold query (pIC50 >= 6) on C=CC(=O)N1C[C@H](c2ccc3ncnc(Nc4ccc(Oc5ccn6ncnc6c5)c(C)c4F)c3n2)C[C@H]1COC (mixture of isomers)
Result string: False

Query string: Threshold query (pIC50 >= 6) on `C=CC(=O)N1CCN(c2ccc3ncnc(Nc4ccc(Oc5ccn6ncnc6c5)c(C)c4F)c3n2)C[C@@H]1C1CC1`
Result string: False

Query string: Threshold query (pIC50 >= 6) on `C=CC(=O)N1CC2CC(C1)N2c1ccc2ncnc(Nc3cc(C)c(Oc4ccc5c(c4)ncn5C)cc3F)c2n1`
Result string: True

Query string: Threshold query (pIC50 >= 6) on `C=CC(=O)N1C[C@@H]2C[C@H]1CC[C@@H]2c1ccc2ncnc(Nc3cc(C)c(Oc4ccn5ncnc5c4)cc3F)c2n1`
Result string: False
